We begin with a simple list: items and their reported hERG current change (%, negative = inhibition) at 10uM.
Target: human ether-à-go-go-related gene (hERG) potassium channel (human);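 note: peak tail current of the secondary pulse compared with the same well before compound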
Sequence (Q12809 whole entry, looked up): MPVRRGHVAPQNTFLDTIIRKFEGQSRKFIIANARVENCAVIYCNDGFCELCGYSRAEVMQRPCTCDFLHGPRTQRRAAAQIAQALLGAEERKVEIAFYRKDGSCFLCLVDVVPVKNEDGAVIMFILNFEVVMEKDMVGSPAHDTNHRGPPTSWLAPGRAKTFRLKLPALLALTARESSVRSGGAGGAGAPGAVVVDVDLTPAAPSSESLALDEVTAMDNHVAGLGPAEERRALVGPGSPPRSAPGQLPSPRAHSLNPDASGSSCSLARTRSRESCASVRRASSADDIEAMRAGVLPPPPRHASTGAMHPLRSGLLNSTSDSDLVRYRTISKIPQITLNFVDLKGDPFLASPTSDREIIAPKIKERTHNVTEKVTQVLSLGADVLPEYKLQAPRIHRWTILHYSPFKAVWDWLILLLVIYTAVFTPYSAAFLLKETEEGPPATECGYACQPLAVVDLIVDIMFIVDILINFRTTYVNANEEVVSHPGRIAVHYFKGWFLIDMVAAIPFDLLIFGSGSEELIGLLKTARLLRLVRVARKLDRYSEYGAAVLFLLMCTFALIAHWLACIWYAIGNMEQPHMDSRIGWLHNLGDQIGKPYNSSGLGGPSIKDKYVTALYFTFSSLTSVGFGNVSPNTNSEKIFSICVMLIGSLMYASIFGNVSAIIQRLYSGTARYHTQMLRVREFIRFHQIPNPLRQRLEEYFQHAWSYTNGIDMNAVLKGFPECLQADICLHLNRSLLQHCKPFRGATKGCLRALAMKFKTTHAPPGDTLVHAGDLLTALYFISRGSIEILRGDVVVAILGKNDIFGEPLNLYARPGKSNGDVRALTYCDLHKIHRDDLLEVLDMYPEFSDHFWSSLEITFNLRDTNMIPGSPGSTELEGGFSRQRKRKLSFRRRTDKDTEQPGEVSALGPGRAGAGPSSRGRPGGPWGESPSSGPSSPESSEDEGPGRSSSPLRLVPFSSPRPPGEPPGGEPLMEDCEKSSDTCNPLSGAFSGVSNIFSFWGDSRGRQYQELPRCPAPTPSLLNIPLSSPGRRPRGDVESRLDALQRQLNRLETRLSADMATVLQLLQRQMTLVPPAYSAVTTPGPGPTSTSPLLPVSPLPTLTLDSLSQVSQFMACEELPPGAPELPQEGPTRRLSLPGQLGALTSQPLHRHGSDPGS
Test: primary screen, population patch clamp on CHO cells stably expressing hERG; higher = less effect of the substance
Out of some 310,000 compounds screened, about 14,000 (4.5%) showed an effect of 50% or more. The effect is printed as a negative number. Only a selection was taken, and strong results are over-represented in it overall.
Parameter measured: hERG current change (%, negative = inhibition) at 10uM (%)

{"Smiles repr": "COc1ccccc1NC(=O)CSc1ccc2nnc(-c3ccc(C)cc3)n2n1", "Quantity unit": "%", "Measured number": -26.6}
{"Smiles repr": "COc1ccccc1NC(=O)CSc1ccc2nnc(-c3cccnc3)n2n1", "Quantity unit": "%", "Measured number": -57}
{"Smiles repr": "CC(=O)N/C(=C\\c1ccc(C)o1)C(=O)NCc1ccccc1", "Quantity unit": "%", "Measured number": 21.8}
{"Smiles repr": "COc1ccccc1NC(=O)CSc1ccc2nnc(-c3ccncc3)n2n1", "Quantity unit": "%", "Measured number": -31.3}
{"Smiles repr": "COc1ccc(OC)c(NC(=O)CSc2ccc3nnc(-c4ccccn4)n3n2)c1", "Quantity unit": "%", "Measured number": -69}

* * *

Molecular target: human ether-à-go-go-related gene (hERG) potassium channel (human);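 note: peak tail current of the secondary pulse compared with the same well before compound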
Test: primary screen, population patch clamp on CHO cells stably expressing hERG; higher = less effect of the substance
Screen size: about 310,000 compounds; about 14,000 (4.5%) showed an effect of 50% or more. The effect is printed as a negative number. The entries come from a sample that favours strong results as a whole.
Please note: condition met applies when hERG current change (%, negative = inhibition) at 10uM is -40% or greater, and condition not met applies otherwise.

{"Molecule": "CCN(CC)CCN(C(=O)C1=COCCO1)c1nc2cc3c(cc2s1)OCO3.Cl", "Tested target": "human ether-à-go-go-related gene (hERG) potassium channel (human)", "Label": "condition not met"}
{"Molecule": "CS(=O)(=O)N1CCc2cc(C(=O)Nc3ccccc3)ccc21", "Tested target": "human ether-à-go-go-related gene (hERG) potassium channel (human)", "Label": "condition met"}
{"Molecule": "Cc1cc(C)c2sc(NC(=O)C3=COCCO3)nc2c1", "Tested target": "human ether-à-go-go-related gene (hERG) potassium channel (human)", "Label": "condition met"}
{"Molecule": "CCCCCn1c(CN2CCCCC2C)nc2c1c(=O)n(C)c(=O)n2C (stereo not shown)", "Tested target": "human ether-à-go-go-related gene (hERG) potassium channel (human)", "Label": "condition not met"}
{"Molecule": "CCCCCCn1c(CN2CCCCC2CC)nc2c1c(=O)n(C)c(=O)n2C (stereo not shown)", "Tested target": "human ether-à-go-go-related gene (hERG) potassium channel (human)", "Label": "condition not met"}
{"Molecule": "CCOc1cc(N2CCOCC2)c(OCC)cc1NC(=O)CSc1ccccc1C(=O)O", "Tested target": "human ether-à-go-go-related gene (hERG) potassium channel (human)", "Label": "condition met"}
{"Molecule": "Nc1nc(Sc2ncccc2[N+](=O)[O-])n[nH]1", "Tested target": "human ether-à-go-go-related gene (hERG) potassium channel (human)", "Label": "condition met"}
{"Molecule": "Cc1ccc2nc(N(CCN(C)C)C(=O)C3=COCCO3)sc2c1.Cl", "Tested target": "human ether-à-go-go-related gene (hERG) potassium channel (human)", "Label": "condition not met"}
{"Molecule": "CCN(CC)CCN(C(=O)/C=C/c1cccs1)c1nc2ccc(C)cc2s1.Cl", "Tested target": "human ether-à-go-go-related gene (hERG) potassium channel (human)", "Label": "condition met"}
{"Molecule": "CCCCCn1c(CN2CCCCC2CC)nc2c1c(=O)n(C)c(=O)n2C (stereo not shown)", "Tested target": "human ether-à-go-go-related gene (hERG) potassium channel (human)", "Label": "condition not met"}
